- Test system: T3G1
- METHOD NOTES: Substrate conversion (oxyfunctionalization) by purified enzyme T3G1 with H2O2
- Format: biochemical, Proteobacteria bacterium
- EXPERIMENTAL PARAMETERS: 1 mM substrate, 2 mM H2O2 (1 mM at start, to 2 mM after 90 min), 7 μM enzyme T3G1 (5 + 2 μM)
Would you mind labelling by % conversion? At or over 60% is satisfied, under is not satisfied.

Here are 6 compounds together with their reported answers.
- COMPOUND: "C1=CCCCC1 [cyclohexene]"
  DISCRETE LABEL: "not satisfied"
- COMPOUND: "CC12CCC(=O)C=C1CCCC2=O (centres unmarked) [Wieland-miescher ketone]"
  DISCRETE LABEL: "not satisfied"
- COMPOUND: "CC/C=C/CC [trans-3-hexene]"
  DISCRETE LABEL: "not satisfied"
- COMPOUND: "CC(C)NCC(O)COc1cccc2ccccc12 (centres unmarked) [propanolol, reference compound]"
  DISCRETE LABEL: "not satisfied"
- COMPOUND: "CCC/C=C/CCC [trans-4-octene]"
  DISCRETE LABEL: "satisfied"
- COMPOUND: "CC(=O)/C=C/C1=C(C)CCCC1(C)C [trans-β-ionone]"
  DISCRETE LABEL: "not satisfied"

**Query** Quick check, % conversion >= 60%? C/C=C\CCCC [cis-2-heptene]
**Result** satisfied

**Query** Quick check, % conversion >= 60%? C(=C\c1ccccc1)/c1ccccc1 [trans-stilbene]
**Result** not satisfied
